The reported measurements were obtained from PubChem BioAssay (NCI).

Tested on: SK-MEL-5 melanoma
Assay: NCI-60 one-dose screen, 48 h
Settings: 10 µM unless noted
Method: Growth inhibition of the SK-MEL-5 human tumor cell line is measured as a screen for anti-cancer activity. Cells are grown in 96 well plates and exposed to the test compound for 48 hours. Compounds are tested at a single concentration, which is 10^-5 M for most compounds. The reported endpoint is percent growth (GI% or GIPRCNT), where numbers from 0 - 100% represent growth inhibition, and numbers from -100% - 0 represent cell death. For example, a value of 40 represents 60% growth inhibition. […]
The panel holds about 83,000 compounds, 20% with a hit somewhere; the sample as a whole holds those more often. The source made the active and inactive calls. Rule for the calls: active = growth percent below 10; inactive = the rest.
Hi there, use one of these labels in your reply, thanks! class 1 for active, class 0 for inactive

How was CCN1C(=S)N(c2ccccc2)C2C1NN=c1s/c(=C3\C(=O)N(C(C)C)c4ccccc43)c(=O)n12 (centres undefined) classified in this test?
class 0

How was `CCCCCOC(=O)c1c(C)[nH]c(/C=C2\N=C(c3ccc[nH]3)C=C2OC)c1C` classified in this test?
class 1

How was `O=C(Nc1nc2cc(C(=O)N3CCN(C(c4ccccc4)c4ccccc4)CC3)ccc2o1)c1ccc(NC2CCCCC2)c([N+](=O)[O-])c1` classified in this test?
class 0

How was `COc1ccc2c(c1)CC[C@H](O)/C2=C/c1cc(OC)c(OC)c(OC)c1` classified in this test?
class 1

How was `Cc1ccc2c(n1)C(=O)C(Br)=C(C1CCCC1)C2=O` classified in this test?
class 0

How was `O=C1/C=C/[C@@H](O)[C@@H]2C[C@@H](O)C[C@H]2/C=C/CCC[C@H](CCc2ccccc2)O1` classified in this test?
class 1

How was `CSc1nc2ncc([N+](=O)[O-])c(=O)n2[nH]1` classified in this test?
class 0

How was CC1(C)CC(=O)C2=C(C1)N(c1ccc(OC(F)(F)F)cc1)C(N)=C(C#N)C2c1ccc(Br)cc1F (centres undefined) classified in this test?
class 0

How was `COc1cc(OCc2cccc(Br)c2C)cc(OC)c1C=O` classified in this test?
class 0
